- protocol.details: yeast display, Sf9 membrane polyspecificity reagent, FACS + sequencing; frameworks hold sequencing errors

sequence.content | polyreactivity (PSR sort gate)
QVQLVESGGGLVQAGGSLRLSCPASGITFVPNAMGWYRQAPGKERELVARIDNGVSTNYADSVKGRFTISRDNAKNTVYLQMNSLKPEDTAVYYCAKDGYWGDWDLDYWGQGTQVTVSS | low polyreactivity
QVQLVESGGGLVQAGGSLRLSCAASGSTFGWYAMGWYRQAPGKERELVAAIRRTGSTYYADSVKGRFTISRDNAKNTVYLQMNSLKPEDTAVYYCNAKYPLYLTGYDYWGQGTQVTVSS | low polyreactivity
QVQLVESGGGLVQAGGSLRLSCAASGSTFRYNALGWYRQAPGKERELVAAINYRGGSTYYADSVKGRFTISRDNAKNTVYLQMNSLKPEDTAVYYCNAVLPLAKYEYDSWGHGTQVTVSS | high polyreactivity
QVQLVESGGGLVQAGGSLRLSCAASGIIFTYAMGWYRQAPGKERELVAAIDWRGGRTYYADSVKGRFTISRDNAKNTVYLQMNSLKPEDTAVYYCAARLPGGTYYWGQGTQVTVSS | high polyreactivity
QVQHVESGGGLVQAGGSLRLSCAASGSNVVSNAMGWYRHATGKEREFVATISSGGGTTYADSVKGRFTISRDNAKITVYLQMNSLKAEDTAVYYCAAGHFVGREWVKFDYWGQGTQVTVSS | low polyreactivity
QVQLVESGGGLVQAGGSLRLSCAASGRIFYFNAMGWNRQAPGKERELVADISSGGRTNYADSVKGRFTISRDNAKNTVYLQMNSLKPEDTAVYYCNADPYTSSGGYRGYDFDYWGQGTQVTVSS | low polyreactivity
QVQLVESGGGLVQAGGSRRLSCAASGSNFRNNAIGWYRQAPGKERELVAVISRRSGNTYYADSVKGRFTISRDNGKKTVYLPMHSLKPEDTAVYYCASDYCKSSIRGDYWGQGTQVTVSS | low polyreactivity
QVQLVESGGGLVQAGGSLRLSCAASGRTFPYNAMGRYRQAPGKERELVAAISGRGGSTYYADSVKGRFTISRDNAKNTVYLQMNSLKPEDTAVYYCAVYTIYGFYYWGQGTQVTVSS | high polyreactivity
QVQLVESGGGLVQAGGSLRLSCAASGYTSRYYAMGWYRQAPGKERELVAAITSGGSTNYADSVKGRFTISRDNAKNTVYLQMNSLKPEDTAVYYCAKGQYPWSYVLQTYIYDYWGQGTQVTVSS | low polyreactivity
QVHLVESGGGLVQAGGSLRLSCAASGFIFLPYAMGSYRQAPGKERELVAAITRGGRTYYADSVKGRFTISRDNAKNTVYLQMNSLKPEDTAVYYCAAVVWAPFYEFYYWGQGTQVTVSS | low polyreactivity
QVQLVESGGGLVQAGGSLRLSCAASGSNLLRYAMGWYRQAPGKERELVAAIRTIGASTNYADSVKGRYTISRDNAKNTVYLLMNSMKPEDTAVYYCNSYLAEVLPVGKGRLYDYWGQGTQVTVSS | low polyreactivity
QVQIVESGGGLVQAGGSLRLSFAASGSTFVLYAMGWYRPAPGKERELVAAISGGATTTYADSVKGRFTISRDNAKNSVYLQMNSLKPEDTAVYYCAADFYTFVVSGAAMDYWGQGTQVTVSS | low polyreactivity
QVQLVESGGGLVQAGCSLRLSCAASGITFRRYTMGWYRPAPGKERELVATISLSDGNTYYADSVKGRFTISRDNAKNTVYLQMNSLKPEDTAVYYCTADVRYGRDHWGQATQVTVSS | low polyreactivity
QVQLVESGGGLVQAGGSLRLSCAASGYTFPSYAMGWYRQAPGKERELVAVITIGGTYYADSVKGRFTISRDNAKNTVYLQMNSLKPEDTAVYYCAADWAWDYYRGFDYWGQGTQVTVSS | low polyreactivity
QVQLVESGGGLVQAGGSLRLSCAASGSTFGYYAMGWYRQAPGKERELVAAITYSGGGTYYADSVKGRFTISRDNAKNTVYLQMNSLKPEDTAVYYCAATIPYSLYGYDYWGQGTQVTVSS | low polyreactivity
QVQLVESGGGLVQAGGSLRLSCAASGIIFDRYAMGWYRQAPGKERELVAAISWSGGRTYYADSVKGRFTISRDNAKNTVYLQMNSLKPEDTAVYYCAAKPSVDLDYWGQGTQVTVSS | high polyreactivity
QVQLVESGGGLVQAGGSLRLSCAASGRTFEYNAMGWYRQAPGKEREFVAAITYSGGGTYYADSVKGRFTISRDNAKNTVYLQMNSLKPEDTAVYYCARERTRVHKHYYWGQGTQVTVSS | low polyreactivity
QVQLVESGGGLVQAGGSLRLSCAASGSTFRYNTMGWDRQAPGKERELVAAISGGGGSTYYADSVKGRFTISRDNAKNTVYLQMNSLKPEDTAVYYCAKRHWYAGYVSSYTTRYDYWGQGTQVTVSS | low polyreactivity
QVQLVESGGGLVQAGGSLRLSCAASGSIFFWYTRGWYRQEPGKERQLVATITGSGSSTTYADSVKGRFTISRDNAKNSVYLQMNSLKPEDTAVYYCAAADIIDHSFPYDYWGQGTQVTVSS | low polyreactivity
QVQLVESGGGLFQAGGSLRLSCAASGRTFKPNTMGWYRQAPGKERELVAAITWRGGSTYYADSVKGRFTISRDNAKNTVYLQMNSLKPEDTAVYYCASARVRTGTGMDYWGQVTQVTVSS | low polyreactivity
QVQLVESGGGLVQAGGSLRLSCAASGITFVPNAMGWYRQAPGKERELVAAINNGGSTYYADSVKGRFTISRDNAKNTVYLQMNSLKPEDTAVYYCAAVSLSTVRGYYYWGQGTQVTVSS | low polyreactivity
